# System: human Branched Chain Amino Acid Aminotransferase cytosolic form (hBCATc) (Homo sapiens, UniProt P54687)
# Sequence (P54687 whole entry): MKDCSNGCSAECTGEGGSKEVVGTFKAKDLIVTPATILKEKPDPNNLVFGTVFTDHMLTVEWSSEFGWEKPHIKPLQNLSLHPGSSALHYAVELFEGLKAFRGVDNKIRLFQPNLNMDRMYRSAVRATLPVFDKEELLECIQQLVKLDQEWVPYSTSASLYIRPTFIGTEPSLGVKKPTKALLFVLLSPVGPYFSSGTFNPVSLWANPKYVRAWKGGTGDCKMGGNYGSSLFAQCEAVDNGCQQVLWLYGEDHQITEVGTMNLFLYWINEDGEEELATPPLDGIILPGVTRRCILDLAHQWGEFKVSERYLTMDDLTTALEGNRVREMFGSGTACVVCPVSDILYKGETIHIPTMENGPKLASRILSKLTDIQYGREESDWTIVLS
# Assay notes: In vitro coupled enzyme assay (glutamate dehydrogenase, NADH formation), human BCATc
# Measurement parameters: recombinant human BCATc, 37° C., 25 mM phosphate buffer pH 7.8; several values in a cell = repeat determinations; read-out: RhBCATc
# log10 IC50 listing for each entry below
Form field - Quantity: IC50; Unit: µM; Scale: log10

In the examples that follow, each entry is paired with its recorded log10 IC50.
O=C(NNS(=O)(=O)c1cccc(Br)c1)c1cc2cc(Cl)ccc2o1 [Example 45] = 0.36
COc1c(C(=O)NNS(=O)(=O)c2ccccc2)oc2ccc(-c3ccccc3)cc12 [Example 65] = 0.51
O=C(NNS(=O)(=O)c1ccccc1)c1ccc2c(c1)OCO2 [Example 10] = 1.82
COc1cccc(S(=O)(=O)NNC(=O)c2cnc3ccccc3c2)c1 [Example 143] = 1.90
O=C(NNS(=O)(=O)c1ccccc1C(F)(F)F)c1cnc2ccccc2c1 [Example 135] = 1.11

Task: What value of log10 IC50 has been reported for the following compound? Cc1ccc2oc(C(=O)NNS(=O)(=O)c3cccc(Br)c3)cc2c1 [Example 83]
Output: 0.98

Task: # repeat for COc1c(C(=O)NNS(=O)(=O)c2ccccc2)oc2c(OC)cccc12 [Example 61]
Output: 0.11

Task: # repeat for O=C(NNS(=O)(=O)c1ccc(C(F)(F)F)cc1)c1ccc2ccccc2c1 [Example 114]
Output: 1.78
